Conditions: in n-butanol, 313.15 K
measure: solubility (mole fraction)

Ask | Fill in: solubility (mole fraction) of Nc1ccnc(=O)[nH]1 is ___
Reply | 0.000301

====

Conditions: in n-hexanol, 308.15 K
measure: solubility (mole fraction)
Give bare numbers.

Ask | Entry Nc1ccnc(=O)[nH]1 : reported solubility (mole fraction) = ?
Reply | 0.000213

====

Details: in methanol, 328.15 K
measure: solubility (mole fraction)

Ask | What solubility (mole fraction) value was documented for this molecule, Nc1ccnc(=O)[nH]1 ?
Reply | 0.00177

====

Details: in sec-butanol, 293.15 K
measure: solubility (mole fraction)
Answers are plain numbers.

Ask | Could you share which solubility (mole fraction) value was measured for Nc1ccnc(=O)[nH]1 ?
Reply | 0.000137

====

Settings: in n-propanol, 318.15 K
measure: solubility (mole fraction)
One number for each entry.

Ask | Entry under review: Nc1ccnc(=O)[nH]1 . Reported solubility (mole fraction)?
Reply | 0.000433

====

Conditions: in isopentanol, 318.15 K
measure: solubility (mole fraction)
One number for each entry.

Ask | // returns reported solubility (mole fraction) for input Nc1ccnc(=O)[nH]1
Reply | 0.000374

====

Conditions: in water, 288.15 K
measure: solubility (mole fraction)
Give bare numbers.

Ask | Which solubility (mole fraction) reading was recorded for the molecule Nc1ccnc(=O)[nH]1 ?
Reply | 0.000768

====

Conditions: in isobutanol, 293.15 K
measure: solubility (mole fraction)
Numbers only.

Ask | Please give the measured solubility (mole fraction) for this compound: Nc1ccnc(=O)[nH]1
Reply | 0.000162

====

Settings: in methanol, 308.15 K
measure: solubility (mole fraction)
One number for each entry.

Ask | Consider the compound Nc1ccnc(=O)[nH]1 and give its measured solubility (mole fraction).
Reply | 0.00112

====

Conditions: in sec-butanol, 308.15 K
measure: solubility (mole fraction)

Ask | Form field: reported solubility (mole fraction) of Nc1ccnc(=O)[nH]1
Reply | 0.000191

====

Conditions: in n-butanol, 323.15 K
measure: solubility (mole fraction)
One number for each entry.

Ask | May I ask what solubility (mole fraction) has been recorded for Nc1ccnc(=O)[nH]1 ?
Reply | 0.000389

====

Conditions: in n-pentanol, 293.15 K
measure: solubility (mole fraction)
Numbers only.

Ask | // query solubility (mole fraction) value for entry Nc1ccnc(=O)[nH]1
Reply | 0.000185

====

Details: in sec-butanol, 298.15 K
measure: solubility (mole fraction)
Answers are plain numbers.

Ask | Look up solubility (mole fraction): Nc1ccnc(=O)[nH]1
Reply | 0.000149

====

Settings: in n-pentanol, 318.15 K
measure: solubility (mole fraction)
Give bare numbers.

Ask | Need solubility (mole fraction) of Nc1ccnc(=O)[nH]1 , thanks.
Reply | 0.00033

====

Settings: in methanol, 318.15 K
measure: solubility (mole fraction)
One number for each entry.

Ask | Quick one: solubility (mole fraction) of Nc1ccnc(=O)[nH]1 ?
Reply | 0.00143

====

Settings: in n-pentanol, 313.15 K
measure: solubility (mole fraction)
One number for each entry.

Ask | For the compound shown here, Nc1ccnc(=O)[nH]1 , give the reported solubility (mole fraction).
Reply | 0.000293

====

Details: in n-propanol, 303.15 K
measure: solubility (mole fraction)
Numbers only.

Ask | Item Nc1ccnc(=O)[nH]1 has what recorded solubility (mole fraction)?
Reply | 0.000303
